biological target: Cytochrome P450 3A4 (Homo sapiens); assay: Cytochrome panel assay with activity outcomes; details: recombinant CYP, pro-luciferin dealkylation, luminescence, p450-cyp3a4; series mostly up to 57.1 µM
The campaign covered roughly 16,000 compounds. About 5,100 (32%) were called active. Roughly 25% stayed inconclusive and do not appear here. Some of the results follow.
READOUT KIND: AC50

Some molecules with known AC50 results, for comparison:
| MOLECULE | AC50 |
| --- | --- |
| Cc1c(Cl)c([N+](=O)[O-])nn1CC(=O)Nc1c(C)n(C)n(-c2ccccc2)c1=O | inactive |
| O=C(NCC1CCCO1)c1cc(-c2ccc(Cl)cc2Cl)on1 (centres undefined) | inactive |
| Cc1nn(Cc2c(F)c(F)c(F)c(F)c2F)c(C)c1NC(=O)c1c(-c2ccccc2)nn(-c2ccccc2)c1C | 2.24 µM (active) |
| CSc1c(-c2ccccc2)nc2ccc(Cl)cc2c1C(=O)O | inactive |
| Cc1nc(Cl)c(C#N)cc1-c1ccccc1 | inactive |
| Cc1nn(CC(=O)NCCN2CCOCC2)c(C)c1[N+](=O)[O-] | inactive |
| COC(=O)[C@@]1(Cc2ccc(F)cc2)[C@H]2c3cc(C(=O)N(C)C)n(Cc4ccc(C)o4)c3C[C@H]2CN1C(=O)c1ccccc1 | 2.51 µM (active) |
| O=C(Nc1nccs1)c1sc2cc(Cl)ccc2c1Cl | 10 µM (active) |

Determine reported AC50 for COC(=O)[C@@]1(Cc2ccc(F)cc2)[C@H]2c3cc(C(=O)N4CCCC4)n(Cc4ccc(C)o4)c3C[C@H]2CN1C(=O)c1ccccc1 ; test system: Cytochrome P450 3A4 (Homo sapiens).
3.16 µM (active)

====

biological target: Cytochrome P450 3A4 (Homo sapiens) (UniProt P08684); test: Cytochrome panel assay with activity outcomes; settings: recombinant CYP, pro-luciferin dealkylation, luminescence, p450-cyp3a4; series mostly up to 57.1 µM
Sequence (P08684 whole entry, looked up): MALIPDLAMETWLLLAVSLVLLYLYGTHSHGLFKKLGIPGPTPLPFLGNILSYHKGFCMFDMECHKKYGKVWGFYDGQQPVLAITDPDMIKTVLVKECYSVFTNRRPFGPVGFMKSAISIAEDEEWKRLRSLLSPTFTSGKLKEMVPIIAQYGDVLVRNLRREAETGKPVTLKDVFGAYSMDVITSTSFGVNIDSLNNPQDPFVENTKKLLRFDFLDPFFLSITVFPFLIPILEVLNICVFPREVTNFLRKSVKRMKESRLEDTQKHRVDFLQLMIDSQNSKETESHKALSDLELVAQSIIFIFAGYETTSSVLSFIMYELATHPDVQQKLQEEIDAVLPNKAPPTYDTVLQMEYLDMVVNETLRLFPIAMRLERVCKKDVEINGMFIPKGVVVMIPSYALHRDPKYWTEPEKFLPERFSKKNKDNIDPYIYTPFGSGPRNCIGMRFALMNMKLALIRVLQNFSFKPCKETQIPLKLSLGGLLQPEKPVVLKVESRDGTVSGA
The whole screen tested about 16,000 compounds, of which about 5,100 (32%) were called active. Not shown: some 25% with an inconclusive outcome. Calls come from the whole dose curve; as a rule, active = well fitted curve in the direction sought with a large enough effect; inconclusive = small, poorly fitted or top-dose-only effect, or effect the other way; inactive = no such curve, though single readings can be large or run the other way. The list shows a part of the results.
Choose the fitting class; nothing outside active, inactive is accepted.

Study these solved cases before continuing.
| COMPOUND | MEASURED ON | CLASS ASSIGNMENT |
| --- | --- | --- |
| Cc1cnc(CNc2ncnc3ccc(-c4ccc(N(C)C)cc4)cc23)cn1 | Cytochrome P450 3A4 (Homo sapiens) (UniProt P08684) | active |
| CCOCCCNC(=O)CCS(=O)(=O)Cc1ccc(C)cc1 | Cytochrome P450 3A4 (Homo sapiens) (UniProt P08684) | inactive |
| CCOC(=O)C1CCN(C(=O)C2CCN(S(=O)(=O)N3CCCC3)CC2)CC1 | Cytochrome P450 3A4 (Homo sapiens) (UniProt P08684) | inactive |

Hi, do you know how CC(OC(=O)Cn1c(C(F)(F)F)nc2ccccc21)C(N)=O (stereo unspecified) came out in this test?
inactive

Just curious, what result did CC1=C(C(=O)Nc2ccccc2F)C(c2ccsc2)C2=C(CC(c3ccccc3)CC2=O)N1 (stereo unspecified) get here?
active

Just curious, what result did Cc1cnc(CNc2ncnc3ccc(-c4ccoc4)cc23)cn1 get here?
active

For CCOC(=O)N1CCN(S(=O)(=O)Cc2ccccc2)CC1 , what call appears in the results of this test?
inactive

Which result was noted for this compound in the test: Cc1cnc(CNc2ncnc3ccc(-c4ccc5c(c4)OCO5)cc23)cn1
active

For this compound, state the assay outcome: CCOC(=O)N1CCN(C(=O)C(C)SCc2ccccc2)CC1 (stereo unspecified)
inactive

Test call for this compound, please: CCCS(=O)(=O)N1CCCC(C(=O)NCCCN2CCN(c3ccccc3F)CC2)C1 (stereo unspecified)
inactive

Lab log entry: CCOC(=O)C1CCCN(C(=O)CCCOc2cc(=O)n(C)c3ccccc23)C1 (stereo unspecified) — outcome as called in the assay?
active
